Source of measurements: patent US8183262B2

measurementLabel: melting point (°C)

Cc1cc(-c2cc(C(F)(F)F)nc(-c3nc(-c4cccc(S(N)(=O)=O)c4)no3)n2)ccc1C(F)(F)F :: 223.5
FC(F)(F)c1cc(-c2ccc(Cl)cc2)nc(-c2ccnc(-c3ccncc3)c2)n1 :: 193
Cc1cc(-c2cc(C(F)(F)F)nc(-c3nc(-c4cccc(S(N)(=O)=O)c4)no3)n2)ccc1Cl :: 246
Cc1cc(-c2ccc(C(F)(F)F)cc2)nc(-c2ccnc(-c3ccc(S(N)(=O)=O)s3)c2)n1 :: 263.5
Nc1ccc(-c2cc(-c3nc(-c4ccc(Cl)cc4)cc(C(F)(F)F)n3)ccn2)cn1 :: 227
